All values here come from paper PMC9482650.

# target entity: T1, PDZD7_1, Q9H5P4
# T1 sequence (Q9H5P4 81-178, limits assumed, looked up): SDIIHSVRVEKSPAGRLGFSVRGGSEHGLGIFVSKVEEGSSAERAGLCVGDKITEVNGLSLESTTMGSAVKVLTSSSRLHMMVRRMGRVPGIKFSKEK
# assay notes: holdup assay
# Parameters: key: below the threshold = too weak to quantify, mostly under pKd 3.1 to 4
# measurement parameters: plain residues with an end cap or a label only (N-terminal biotin on a linker: ttds)
measured endpoint: pKd

binder: SSRTRRETQL [HPV16-E6, P03126]
measured endpoint: pKd
value reported: below the threshold
--
binder: PKTPPTDTSV [KIR3DL3, Q8N743]
measured endpoint: pKd
value reported: below the threshold
--
binder: SRPQRTQTQV [HPV67-E6, A4U7F2]
measured endpoint: pKd
value reported: below the threshold
--
binder: SVWLRKETRV [CYSLTR2, Q9NS75]
measured endpoint: pKd
value reported: below the threshold
